The measured values listed here are drawn from paper PMC5290327.

# Method: PK study
# Type: in vivo, mouse
# Condition notes: plasma, iv; mouse i.v. 2 mg kg^−1
Reported metric: Tmax (min)
Could you give me the number in min? Just the number is fine.

State, in one line, measured Tmax of COC(=O)N1CCN(C(=N)c2cccc(NC(=O)Nc3ccc(S(=O)(=O)NCc4ccc(S(N)(=O)=O)cc4)cc3)c2)CC1
5

* * *

# Method: PK study
# Assay type: in vivo, mouse
# Condition notes: plasma, ip; mouse i.p. 20 mg kg^−1
# Method: On the treatment day, all animals were weighed and the dosing volume was calculated for each individual animal according to its actual body weight. All animal were dosed once. Blood samples were taken at different time points and plasma was collected after centrifugation (10,000g, 10 min, 4 °C). Plasma samples were analysed by LC–MS/MS. […] All relevant observations were recorded. […]
Reported metric: AUC(0-inf) (ng·h/mL)
A number alone suffices; assume ng·h/mL.

Please list AUC(0-inf) recorded for the molecule CCCCN1CCN(C(=N)c2cccc(NC(=O)Nc3ccc(S(=O)(=O)NCc4ccc(S(N)(=O)=O)cc4)cc3)c2)CC1
4340

* * *

# Method: PK study
# Format: in vivo, cynomolgus
# Condition notes: cynomolgus monkey, plasma, iv; cynomolgus i.v. 2 mg kg^−1
Reported metric: AUC(0-inf) (ng·h/mL)
Quick note: give the figure in ng·h/mL, leave out the unit.

Give AUC(0-inf) for COC(=O)N1CCN(C(=N)c2cccc(NC(=O)Nc3ccc(S(=O)(=O)NCc4ccc(S(N)(=O)=O)cc4)cc3)c2)CC1
4250

* * *

# Tested on: P. falciparum strain 3D7
# Method: Growth inhibition assay
# Format: cell-based
# Condition notes: Plasmodium falciparum
Reported metric: IC50
Provide the measurement as a number trailed by its unit.

Some molecules with known IC50 results, for comparison:
Molecule | Reported metric | Test value
C[C@@H]1CC[C@H]2[C@@H](C)C(=O)O[C@@H]3O[C@@]4(C)CC[C@@H]1[C@]32OO4 | IC50 | 8 nM
C=C[C@H]1C[N@@]2CC[C@H]1C[C@H]2[C@H](O)c1ccnc2ccc(OC)cc12 | IC50 | 14 nM
C=C[C@H]1C[N@@]2CC[C@H]1C[C@@H]2[C@@H](O)c1ccnc2ccc(OC)cc12 | IC50 | 14 nM

Provide only the value of recorded IC50 for CCc1nc(N)nc(N)c1-c1ccc(Cl)cc1
16 nM

Quick one: give measured IC50 for CCN(CC)CCCC(C)Nc1ccnc2cc(Cl)ccc12 (stereo not drawn)
3 nM

Look up and state reported IC50 for CCN(CC)Cc1cc(Nc2ccnc3cc(Cl)ccc23)ccc1O
8 nM

Provide measured IC50 value, entry: CCCCN1CCN(C(=N)c2cccc(NC(=O)Nc3ccc(S(=O)(=O)NCc4ccc(S(N)(=O)=O)cc4)cc3)c2)CC1
13 nM

// fetch IC50 given entry OC(c1cc(C(F)(F)F)nc2c(C(F)(F)F)cccc12)C1CCCCN1 (stereo not drawn)
0.04 nM

Could you please provide reported IC50 for COC(=O)N1CCN(C(=N)c2cccc(NC(=O)Nc3ccc(S(=O)(=O)NCc4ccc(S(N)(=O)=O)cc4)cc3)c2)CC1 ? Thanks!
8 nM

* * *

Below, each entry is listed with its recorded IC50.
# Tested on: early stage (I–III) gametocytes, NF54^Pfs16
# Method: Gametocytocidal activity, luciferase assay
# Type: cell-based
# Condition notes: Plasmodium falciparum, 72 h
# Experimental: Activity against early- and late-stage gametocytes was determined in miniaturized 384-wells plate assays as previously described. […] After 72 h of incubation, gametocyte inhibition was assessed by luminometry, after addition of Steadylite plus luciferase detection kit (PerkinElmer) to the plate wells[58][59].
# value in nM; strip the unit string

Sample smiles | Target of assay | IC50 [nM]
CCCCN1CCN(C(=N)c2cccc(NC(=O)Nc3ccc(S(=O)(=O)NCc4ccc(S(N)(=O)=O)cc4)cc3)c2)CC1 | early stage (I–III) gametocytes, NF54^Pfs16 | 76

Now take the following compound into account.
For early stage (I–III) gametocytes, NF54^Pfs16, give IC50 of the listed compound: COC(=O)N1CCN(C(=N)c2cccc(NC(=O)Nc3ccc(S(=O)(=O)NCc4ccc(S(N)(=O)=O)cc4)cc3)c2)CC1
199
